# Test system: P. berghei ANKA strain
# Measurement description: Divided 3x3 mg/kg and 3x1 mg/kg po doses in infected mice
# Format: in vivo, Plasmodium berghei
# Setup conditions: 3 × 3 mg/kg p.o. SSV on days 1, 2, 3 post-infection; percent reduction of parasitemia vs control on day 4
Could you please report measured Activity (%) for the items listed next?
Output spec: scalar in %, unitless text.

Problem: # value lookup — system P. berghei ANKA strain, readout Activity (%), item Cc1ccc(S(=O)(=O)O)cc1.NCCNC(=O)CC1CCC2(CC1)OOC1(O2)C2CC3CC(C2)CC1C3 (stereo not shown)
Solution: 99.91

Problem: # value lookup — system P. berghei ANKA strain, readout Activity (%), item Cc1ccc(S(=O)(=O)O)cc1.N[C@H]1CC[C@H](NC(=O)C[C@H]2CC[C@]3(CC2)OO[C@]2(O3)C3CC4CC(C3)CC2C4)CC1
Solution: 99.99

Problem: # value lookup — system P. berghei ANKA strain, readout Activity (%), item CO[C@H]1O[C@@H]2O[C@@]3(C)CC[C@H]4[C@H](C)CC[C@@H]([C@H]1C)[C@@]24OO3 [AM, artemether, reference compound]
Solution: 86

Problem: # value lookup — system P. berghei ANKA strain, readout Activity (%), item NS(=O)(=O)c1ccc(NCC2CCC3(CC2)OOC2(O3)C3CC4CC(C3)CC2C4)cc1 (stereo not shown)
Solution: 99.99

Problem: # value lookup — system P. berghei ANKA strain, readout Activity (%), item O=c1ccn(CC2CCC3(CC2)OOC2(O3)C3CC4CC(C3)CC2C4)cc1 (stereo not shown)
Solution: 99.51

Problem: # value lookup — system P. berghei ANKA strain, readout Activity (%), item CC(C)(N)C(=O)NC[C@H]1CC[C@]2(CC1)OOC1(O2)C2CC3CC(C2)CC1C3 (stereo partly shown)
Solution: 100

Problem: # value lookup — system P. berghei ANKA strain, readout Activity (%), item NC[C@H]1CC[C@]2(CC1)OOC1(O2)C2CC3CC(C2)CC1C3 (stereo partly shown)
Solution: 100
